# Experiment Summary: Dissociation constant, pKa of the compound
# Assay type: physicochemical

- Compound Smiles: "c1cc2[nH]c3cccc4oc5cccc6oc(c1)c2[c+](c34)c65"
  pKa: 5.7

###

Recorded pKR+ by entry
# Experiment Summary: Stability of carbenium ionic form, pKR+ of the compound by spectrophotometric analysis
# Type: physicochemical
Assay Metric: pKR+

- Compound Smiles: "c1cc2oc3cccc4oc5cccc6oc(c1)c2[c+](c34)c65"
  Reported Result: 9.1
- Compound Smiles: "CCCCn1c2cccc3c2[c+]2c4c1cccc4n(CCCC)c1cccc(c12)n3CCCC.F[B-](F)(F)F"
  Reported Result: 23.7
- Compound Smiles: "CCCn1c2cccc3oc4cccc5c4[c+](c32)c2c1cccc2n5CCC"
  Reported Result: 19.4
- Compound Smiles: "CCCn1c2cccc3oc4cccc5oc6cccc1c6[c+](c45)c32"
  Reported Result: 14.5

Where these numbers come from: ChEMBL document CHEMBL4373677
